# Assay details: NCI Yeast Anticancer Drug Screen. Data for the bub3 strain (AID 167)
# Test parameters: S. cerevisiae bub3 mutant strain, at 50.0 µM, stronger effect = higher value
Compounds without any hit were thinned out: in the full panel of roughly 79,000, 15% have a hit. Calls of active or inactive are those of the source. Cut-off read from the data, not from the text of the source: active = growth inhibition above about 70%; inactive = the rest.
Readout: growth inhibition

> print(dat)
                                    compound           reported
 1  COc1ccc(N2C(=O)/C(=C/c3ccc(N(CCC#N)CCC#N)cc3C)N=C2c2cc([N+](=O)[O-])ccc2Cl)cc1  -13.9% (inactive)
 2  NC(CC(=O)NC(CC(=O)O)C(=O)O)C(=O)O (stereo not drawn)    -20% (inactive)
 3  Cc1cc2c(=O)cc(-c3ccccc3Cl)oc2c(C(=O)O)c1C  -2.75% (inactive)
 4                  Cc1nc2c(N)cc(Cl)cc2[nH]1   -7.3% (inactive)
 5        Fc1ccccc1CSc1n[nH]c(=S)c2nc[nH]c12    0.3% (inactive)
 6  CN(N=O)C(=O)NC(CCCCNC(=O)OCc1ccccc1)C(=O)OCc1ccccc1 (stereo not drawn)   11.6% (inactive)
 7  O=[N+]([O-])C1CCC(N=Nc2c(O)ccc3ccccc23)CC1 (stereo not drawn)  -50.6% (inactive)
 8  CN(C)/C=N/c1nc2ncn(CCOC(=O)c3ccccc3)c2c(=O)[nH]1  -11.4% (inactive)
 9  Cc1ccc2c(c1)[nH]c(=S)n2C=C1C(=O)CC(C)(C)CC1=O  -21.6% (inactive)
10               CCOC(=O)C1=CC(=O)CC(C)(C)O1   -0.8% (inactive)
11              Nc1nc(N)nc(-c2cc(Br)ccc2N)n1   30.4% (inactive)
12             CS(=O)(=O)Oc1ccc2cc(Br)ccc2c1   31.4% (inactive)
13  CNCCCc1cc(-c2ccc([N+](=O)[O-])cc2)n[nH]1   13.6% (inactive)
14  Cc1[nH]c(=O)[nH]c(=O)c1/C=C/C(=O)NC(CO)CS(C)=O (stereo not drawn)   0.75% (inactive)
15    O=[N+]([O-])c1ccc(CS(=O)(=O)c2cccs2)o1   19.5% (inactive)
16  C1CCC(CCC2CCCC[N-]2)[N-]C1.[I][Co][I] (stereo not drawn)   33.7% (inactive)
17  COC(=O)C(=O)C(/C=N/C(=S)Nc1ccc(S(=O)(=O)Nc2nccs2)cc1)=C(\O)c1c(C)[nH]c2ccccc12   35.9% (inactive)
18                    Cc1ccc(N)cc1S(=O)(=O)O      3% (inactive)
19                  O=C(O)Cc1ccccc1-c1ccccc1   -6.2% (inactive)
20             Cc1cc(N=Nc2ccccc2)c2cccnc2c1N  -5.15% (inactive)
21                         Clc1ccc2nsnc2c1Cl    7.8% (inactive)
22     O=c1c2ncccc2cc2n1CCc1c-2[nH]c2ccccc12   -1.1% (inactive)
23  CN(C)CC1CCC2=C(C1=O)C(c1ccccc1)C1=C(CCC(CN(C)C)C1=O)O2 (stereo not drawn)    4.3% (inactive)
24                        CCCN=C(C)C(C)=NCCC  -19.4% (inactive)
25           CCCCCCCC/C=C/CCCCCCCC(=O)NN(C)C  -3.95% (inactive)
26  C(=C1\CCC/C(=C/c2ccccc2)C1=NNc1ccccc1)/c1ccccc1     11% (inactive)
27                         NCCSSC/C=C\CSSCCN  -15.8% (inactive)
28  COC(=O)C1c2ccccc2CC(=O)N1NC(=O)c1ccccc1 (stereo not drawn)   3.65% (inactive)
29  CCc1cn(C2CC(CO)C(CO)S2)c(=O)[nH]c1=O (stereo not drawn)  -8.55% (inactive)
30            CN(C(=O)/C=C/c1ccccc1)c1ccccc1   43.3% (inactive)
31       CCn1c2ccc(N(C)C)cc2c2cc(N(C)C)ccc21  -18.5% (inactive)
32  CCC(CO)Nc1nc2c(Cl)cc(Cl)cc2c2ccccc12 (stereo not drawn)     12% (inactive)
33  CCOC(=O)CC1CC(C)(C(=O)OCC)C(=O)CC1=O (stereo not drawn)    7.5% (inactive)
34  Cc1ccc(OCC2OC(n3cnc4c(N(C)C)nc(Br)nc43)CC2Oc2ccc(C)cc2)cc1 (stereo not drawn)   2.45% (inactive)
35            O=C(O)c1cccc(NC(=O)C(F)(F)F)c1  -6.05% (inactive)
36              O=C1CCN(C(=O)C2=CC(=O)OC2)C1   5.15% (inactive)
37  COC(=O)c1nc(=S)[nH]c(C(=O)OC)c1C(=O)c1ccccc1  -25.4% (inactive)
38     CCCC(=O)C(N)CC(C)C (stereo not drawn)   2.45% (inactive)
39  CC(C)(C)c1cc2c3c(c1)C(C(F)(F)F)(C(F)(F)F)OS3(=O)(O)OC2(C(F)(F)F)C(F)(F)F    4.2% (inactive)
40  CC(=O)OC1CC2CCC1(c1ccccc1)C2 (stereo not drawn)   -1.2% (inactive)
41                       Nc1ccc(Br)c2ccccc12   27.3% (inactive)
42                    c1ccc(CSc2nn[nH]n2)cc1  -2.45% (inactive)
43                    O=C(c1ccc(F)cc1)C1CCC1   18.6% (inactive)

* * *

Each item that follows carries a reported growth inhibition.
# Assay details: NCI Yeast Anticancer Drug Screen. Data for the bub3 strain (AID 167)
# Test parameters: S. cerevisiae bub3 mutant strain, at 50.0 µM, stronger effect = higher value
The panel holds about 79,000 compounds, 15% with a hit somewhere; the sample as a whole holds those more often.
Readout: growth inhibition (%)

> print(dat)
                                    compound            readout  reported
 1                          O=C1CC2CCC(C1)S2  growth inhibition     -2.95
 2  O=S1(=O)C2CCCCCC2(N2CCOCC2)C1C1CCCCC1 (centres undefined)  growth inhibition         6
 3  COc1cc(/C=C/C(=O)Oc2ccccc2)ccc1C(=O)O/C=C/c1ccccc1  growth inhibition     -5.15
 4  CCOC(=O)C(C(=O)c1cccnc1)C(C(=O)OCC)C(=O)c1cccnc1 (centres undefined)  growth inhibition      12.1
 5  O=C(CC(C(=O)c1cccs1)c1ccsc1)c1ccc(Cl)s1 (centres undefined)  growth inhibition      -2.2
 6  CCSC1C(N=[N+]=[N-])C(CO)OC1n1cnc2c(N)ncnc21 (centres undefined)  growth inhibition        -2
 7                  CCNC1=CC(=O)c2ncccc2C1=O  growth inhibition      39.2
 8  O=C(CC1(O)C(=O)Nc2ccc(Br)cc21)c1ccc(Cl)cc1Cl (centres undefined)  growth inhibition      48.2
 9                       CC(C)CN(CC#N)CC(C)C  growth inhibition     -49.1
10    CSc1ccc(NC(=O)Nc2ccc(Nc3ccccc3)cc2)cc1  growth inhibition      14.2
11  CC1NC(C)c2ccc3ccccc3c2O1 (centres undefined)  growth inhibition     -11.2
12         CC(=O)Nc1ccc(NC(=O)c2ccccc2Cl)cc1  growth inhibition      10.9
13  CN(C)c1ccc(C=Nc2ccc3c(c2)C(N2CCOCC2)c2ccccc2-3)cc1 (centres undefined)  growth inhibition     -15.8
14            CC1CCCNC1C (centres undefined)  growth inhibition     -3.25
15                  OCCN(Cc1ccccn1)Cc1ccccn1  growth inhibition       8.4
16             CCN(CC)CCOC(c1ccccc1)c1ccccc1  growth inhibition     -0.05
17  O=C1C(Cl)C(c2cccc(O)c2)N1n1cnc2ccccc2c1=O (centres undefined)  growth inhibition     -19.4
18  O=[N+]([O-])c1cc(C(F)(F)F)ccc1S(=O)(=O)c1ccccc1  growth inhibition      14.1
19  COc1ccc(C(=O)C(O)c2ccc(OC)cc2)cc1 (centres undefined)  growth inhibition     -4.35
20                           NC(=O)N1CCCC1=O  growth inhibition     -11.3
21  OCC1OC(n2ncc3c(Nc4ccccc4)ncnc32)C(O)C1O (centres undefined)  growth inhibition       6.9
22  O=C(Nc1cccc([N+](=O)[O-])c1)OCC#CCOC(=O)Nc1cccc([N+](=O)[O-])c1  growth inhibition      9.95
23  Cc1ccnc(NC(NC(=O)c2ccccc2)(C(F)(F)F)C(F)(F)F)c1  growth inhibition     -8.05
24  C[C@H](OCc1ccccc1)C(=O)N1CCS(=O)(=O)N2CCC[C@@H]2C1=O  growth inhibition      -5.9
25      C#CC(O)C(CC)CCCC (centres undefined)  growth inhibition     -12.8
26  COC(=O)c1oc([N+](=O)[O-])c(-c2ccccc2)c1-c1ccccc1  growth inhibition      6.85
27  O=C1/C(=C/c2ccccc2)SC(=S)N1C1c2ccccc2Oc2ccccc21  growth inhibition      5.25
28                    COc1cc(C)c(C#N)c(OC)n1  growth inhibition      20.2
29   Cc1c2sc3ccccc3[nH]c2nc2[nH]c3ccccc3sc12  growth inhibition        11
30                O=C(CO)c1ccc(-c2ccccc2)cc1  growth inhibition      4.95
31  O=C(OCc1ccccc1)C1(N2CN(C3(C(=O)OCc4ccccc4)CCCC3)CN(C3(C(=O)OCc4ccccc4)CCCC3)C2)CCCC1  growth inhibition      13.5
32    Cc1cc(Br)ccc1N=c1scc(-c2ccc(Cl)cc2)n1C  growth inhibition      16.1
33  CC1=C(C(=O)OCCc2ccc([N+](=O)[O-])cc2)C(c2cccc([N+](=O)[O-])c2)C(C(=O)OC(C)C)=C(C)N1 (centres undefined)  growth inhibition      16.1
34  CC(O)c1ccc2c(c1)Nc1ccccc1S2 (centres undefined)  growth inhibition     -24.4
35                 CCOC(=O)/C(C#N)=C/NC(N)=O  growth inhibition      1.95
36              CCCNCCC(=O)Nc1ccccc1C(=O)OCC  growth inhibition      29.3
37    O=C(c1ccccc1)N1CC2CCC1CN2C(=O)c1ccccc1  growth inhibition      42.7
38  CC1CCCC2(C)CCC(=O)C=C12 (centres undefined)  growth inhibition     -1.95
39  COc1ccc(C(=O)c2cc(S(=O)(=O)O)c(OC)cc2O)c(O)c1  growth inhibition     -13.4
